# IC50 measurements, system: IRAK4 (Homo sapiens, UniProt Q9NWZ3)
# Sequence (Q9NWZ3 whole entry, species assumed): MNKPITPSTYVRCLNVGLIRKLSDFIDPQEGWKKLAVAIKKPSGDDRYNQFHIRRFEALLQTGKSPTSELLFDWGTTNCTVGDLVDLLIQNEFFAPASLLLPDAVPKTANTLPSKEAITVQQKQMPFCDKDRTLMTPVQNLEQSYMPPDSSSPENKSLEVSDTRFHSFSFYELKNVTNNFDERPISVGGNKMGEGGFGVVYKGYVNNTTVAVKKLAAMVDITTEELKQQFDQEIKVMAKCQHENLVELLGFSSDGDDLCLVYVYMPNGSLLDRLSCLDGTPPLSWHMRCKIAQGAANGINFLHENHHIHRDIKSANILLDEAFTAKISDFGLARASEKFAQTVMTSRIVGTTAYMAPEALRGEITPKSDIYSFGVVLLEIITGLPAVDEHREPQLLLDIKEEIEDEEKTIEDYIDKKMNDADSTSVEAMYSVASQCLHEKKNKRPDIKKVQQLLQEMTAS
Give bare numbers, in nM.

>  <molecule>
Cc1sc(-c2cnc(Nc3ccc4ncsc4c3)cc2NC(C)C)nc1C(=O)NCCCN1CCCCC1

>  <experimentalTarget>
IRAK4 (Homo sapiens, UniProt Q9NWZ3)

>  <readoutUnit>
nM

>  <IC50>
2.7

$$$$
>  <molecule>
CC(C)Nc1cc(Nc2ccc3ncsc3c2)ncc1-c1nc(C(=O)N2CCC3(CC2)C(=O)NCN3c2ccccc2)cs1

>  <experimentalTarget>
IRAK4 (Homo sapiens, UniProt Q9NWZ3)

>  <readoutUnit>
nM

>  <IC50>
576

$$$$
>  <molecule>
CC(C)Nc1cc(Nc2ccc3ncsc3c2)ncc1-c1nnc(NC2CNC2)o1

>  <experimentalTarget>
IRAK4 (Homo sapiens, UniProt Q9NWZ3)

>  <readoutUnit>
nM

>  <IC50>
26.4

$$$$
>  <molecule>
CC(C)Nc1cc(Nc2ccc3ncsc3c2)ncc1-c1nc(C(=O)NCC2CCCO2)cs1 (stereo not shown)

>  <experimentalTarget>
IRAK4 (Homo sapiens, UniProt Q9NWZ3)

>  <readoutUnit>
nM

>  <IC50>
24

$$$$
>  <molecule>
CC(=O)NC1CCN(C(=O)c2nnc(-c3cnc(Nc4ccc5ncsc5c4)cc3NC(C)C)s2)C1 (stereo not shown)

>  <experimentalTarget>
IRAK4 (Homo sapiens, UniProt Q9NWZ3)

>  <readoutUnit>
nM

>  <IC50>
3.3

$$$$

Would you mind listing IC50 for each of the following molecules?
1. Cc1oc(-c2cnc(Nc3ccc4ncsc4c3)cc2NC(C)C)nc1NC(=O)OC(C)(C)C
2. CC(C)Nc1cc(Nc2ccc3ncsc3c2)ncc1-c1nc(C(=O)N2CCN(c3ccc(F)cc3F)CC2)cs1
3. CC(C)Nc1cc(Nc2ccc3ncsc3c2)ncc1-c1ccc2cn[nH]c2c1
4. CC(C)Nc1cc(Nc2ccc3ncsc3c2)ncc1-c1nnc(C(=O)N2CCC(O)C2)s1 (single isomer, unassigned)
5. COc1cccc(-c2cnc(Nc3ccc4ncsc4c3)cc2NC(C)C)n1
6. CC(C)Nc1cc(Nc2ccc3ncsc3c2)ncc1-c1nnc(N2CCN(CCN3CCOCC3)CC2)o1
7. NC(=O)c1nnc(-c2cnc(Nc3ccc4ncsc4c3)cc2N[C@H](CO)Cc2ccccc2)o1

Marked response:
1: 875; 2: 764; 3: 813; 4: 3.2; 5: 616; 6: 22.1; 7: 24.5

Exam item: Quote IC50 reported for CC(C)Nc1cc(Nc2ccc3ncsc3c2)ncc1-c1nc(C(=O)NCC2CCCCC2)cs1 please.
Marked response: 795
